All values here come from patent US12391679B2.

Molecular target: SIK3 (Homo sapiens)
Construct: purchased SignalChem S12-11G-100
Sequence (Q9Y2K2 59-365 limits assumed): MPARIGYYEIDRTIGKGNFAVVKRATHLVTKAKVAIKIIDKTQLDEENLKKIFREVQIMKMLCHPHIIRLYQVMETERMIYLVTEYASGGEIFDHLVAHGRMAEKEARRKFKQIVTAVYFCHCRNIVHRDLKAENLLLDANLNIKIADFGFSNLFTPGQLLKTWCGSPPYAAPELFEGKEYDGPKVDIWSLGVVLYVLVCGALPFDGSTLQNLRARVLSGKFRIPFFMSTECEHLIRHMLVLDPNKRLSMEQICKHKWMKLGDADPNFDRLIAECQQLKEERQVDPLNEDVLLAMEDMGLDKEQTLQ
Assay: ADP-Glo kinase assay, SIK3
Format: biochemical
pIC50: −log10 of the molar value.
READOUT KIND: pIC50

The examples below pair each entry with its known result.
1. COc1cc(-c2cnc3cc(C4(O)CCC4)ccn23)cc(OC(F)F)c1C(=O)N[C@@H]1C[C@@H]1F [Cpd 205]    8.00 to 11.00
2. COc1cc(-c2cnc3cc(C4CCOCC4)ncn23)cc(OC(F)F)c1C(=O)NC1CC1 [Cpd 109]    < 6.30
3. COc1cc(-c2cnc3cc(C4(C#N)CN(C)C4)ccn23)cc(OC(F)F)c1C(=O)NC1CC1 [Cpd 121]    7.00 to 8.00
4. COc1cc(-c2cnc3cc(C(C)(C)C#N)ccn23)cc(OC(F)F)c1C(=O)N1CC(NC(=O)OC(C)(C)C)C1 [Cpd 94]    < 6.30
5. COc1cc(-c2cnc3cc(C4(C#N)CNC4)ccn23)cc(OC(F)F)c1C(=O)NC1CC1 [Cpd 110]    7.00 to 8.00

Returns the measured pIC50 for the input molecule. Input: COc1cc(-c2cnc3cc(C4(C#N)COC4)ccn23)cnc1C(=O)NCC(F)(F)F [Cpd 125] < 6.30

Give the measured pIC50 of COc1cc(-c2cnc3cc(C(C)(O)C4CC4)ccn23)cc(OC(F)F)c1C(=O)NC1CC1 (centres unmarked) [Cpd 138] . 7.00 to 8.00

Need pIC50 of CCN(CC)C(=O)C1(c2ccn3c(-c4cc(OC)c(C(=O)NC5CC5)c(OC(F)F)c4)cnc3c2)CC1 [Cpd 143] , thanks. 6.30 to 7.00

----------
Each entry below carries its reported IC50.
Biological target: SIK3 (Homo sapiens)
Construct: purchased SignalChem S12-11G-100
Assay: ADP-Glo kinase assay, SIK3
Type: biochemical

1. COc1cc(-c2cnn3cc(C4COC4)ccc23)cc(OC(F)F)c1C(=O)NC1CC1 [Cpd 216]    10 to 100 nM
2. COc1cc(-c2cnc3cc(C(C)(C)C#N)ccn23)cc(OC(F)F)c1C(=O)NC(C)C(F)F (stereo not shown) [Cpd 71]    10 to 100 nM

Now for the molecule whose IC50 we want.
Request - read-out IC50 | tested on SIK3 (Homo sapiens) | molecule COc1cc(-c2cnc3cc(C4CN(C)C4)ccn23)cc(OC(F)F)c1C(=O)NC1CC1 [Cpd 91] 10 to 100 nM

----------
Tested on: LPS-induced TNFα in monocytes
Experiment: Monocytes assay: LPS-triggered TNFα (ELISA)
Format: cell-based, human
Details: Homo sapiens, Monocyte, LPS-triggered TNFα inhibition
READOUT KIND: EC50

1) COc1cc(-c2cnn3cc(C4(O)CCC4)ccc23)cc(OC(F)F)c1C(=O)N[C@@H]1C[C@@H]1F    100 to 1000 nM
2) COc1cc(-c2cnn3cc(C(C)(C)C#N)ccc23)cc(OC(F)F)c1C(=O)N[C@H]1C[C@H]1F    100 to 1000 nM
3) COc1cc(-c2cnn3cc(C(C)(C)N)ccc23)cc(OC(F)F)c1C(=O)N[C@@H]1C[C@@H]1F    100 to 1000 nM
4) COc1cc(-c2cnn3cc(C4(C#N)CCC4)ccc23)cc(OC(F)F)c1C(=O)N[C@@H]1C[C@@H]1F    100 to 1000 nM
5) COc1cc(-c2cnc3cc(C(C)N4CCOCC4)ccn23)cc(OC(F)F)c1C(=O)NC1CC1 (stereo not shown)    1000 to 5000 nM
6) COc1cc(-c2cnc3cc(C(C)(C)C#N)ccn23)cc(OC(F)F)c1C(=O)NCC(F)F    100 to 1000 nM
7) COc1cc(-c2cnc3cc(C4(C#N)CC4)ccn23)cc(OC(F)F)c1C(=O)NC1CC1    0.1 to 100 nM
8) COc1cc(-c2cnc3cc(C4(O)CCC4)ccn23)cc(OC(F)F)c1C(=O)N[C@@H]1C[C@@H]1F    100 to 1000 nM

For the compound COc1cc(-c2cnc3cc(C(C)(C)C#N)ccn23)cc(OC(F)F)c1C(=O)N1CC(F)C1 , what EC50 is on record? 100 to 1000 nM

Look up EC50: COc1cc(-c2cnc3cc(C(C)(O)C4CC4)ccn23)cc(OC(F)F)c1C(=O)NC1CC1 (stereo not shown) 100 to 1000 nM

Quick one: EC50 for COc1cc(-c2cnc3cc(C(C)O)ccn23)cc(OC(F)F)c1C(=O)NC1CC1 (stereo not shown) ? 100 to 1000 nM

----------
Reported pEC50 by item:
Test system: LPS-induced TNFα in monocytes
Assay: Monocytes assay: LPS-triggered TNFα (ELISA)
Type: cell-based, human
Conditions: Homo sapiens, Monocyte, LPS-triggered TNFα inhibition
pEC50: −log10 of the molar value.

Example results:
1. COc1cc(-c2cnc3cc(C4(F)COC4)ccn23)cc(OC(F)F)c1C(=O)NC1CC1    6.00 to 7.00
2. COc1cc(-c2cnn3cc(C4CCOCC4)cnc23)cc(OC(F)F)c1C(=O)NC1CC1    6.00 to 7.00
3. CNC(=O)C1(c2ccc3c(-c4cc(OC)c(C(=O)N[C@@H]5C[C@@H]5F)c(OC(F)F)c4)cnn3c2)CCC1    6.00 to 7.00
4. COc1cc(-c2cnn3cc(C(C)(C)O)ccc23)cc(OC(F)F)c1C(=O)N[C@@H]1C[C@@H]1F    6.00 to 7.00

What pEC50 value was documented for this compound, COc1cc(-c2cnc3cc(C(C)N4CCCCC4)ccn23)cc(OC(F)F)c1C(=O)NC1CC1 (stereo not shown) ? 5.30 to 6.00

Given COc1cc(-c2cnn3cc(C(C)(C)C#N)ccc23)cc(OC(F)F)c1C(=O)N[C@@H]1C[C@@H]1F [Cpd 219] , state its recorded pEC50. 7.00 to 10.00

Please look up its pEC50: COc1cc(-c2cnc3cc(C4CCOCC4)c(F)cn23)cc(OC(F)F)c1C(=O)NC1CC1 6.00 to 7.00

----------
Biological target: SIK3 (Homo sapiens)
Construct: purchased SignalChem S12-11G-100
Assay: ADP-Glo kinase assay, SIK3
Type: biochemical
pIC50: −log10 of the molar value.
Parameter: pIC50. Scope: all listed entries.

1. COc1cc(-c2cnc3cc(C4(C(=O)N5CCOCC5)CC4)ccn23)cc(OC(F)F)c1C(=O)NC1CC1    6.30 to 7.00
2. COc1cc(-c2cnc3cc(C(C)(O)Cn4cncn4)ccn23)cc(OC(F)F)c1C(=O)NC1CC1 (stereo not drawn)    6.30 to 7.00
3. COc1cc(-c2cnc3cc(C(C)(C)C#N)ccn23)cc2c1C(=O)NCC2    7.00 to 8.00
4. COc1cc(-c2cnn3cc(C4COC4)ccc23)cc(OC(F)F)c1C(=O)N[C@@H]1C[C@@H]1F    8.00 to 11.00
5. COc1cc(-c2cnc3cc(C(C)(C)C#N)ccn23)cc(OC(F)F)c1C(=O)N[C@H]1CCCC[C@@H]1N    7.00 to 8.00

Field request: pIC50 | item: COc1cc(-c2cnc3cc(C4(N5CCOCC5)COC4)ccn23)cc(OC(F)F)c1C(=O)NC1CC1 6.30 to 7.00

----------
System: LPS-induced TNFα in monocytes
Test: Monocytes assay: LPS-triggered TNFα (ELISA)
Assay type: cell-based, human
Conditions: Homo sapiens, Monocyte, LPS-triggered TNFα inhibition
READOUT KIND: EC50

Item COc1cc(-c2cnn3cc(C4COC4)ccc23)cc(OC(F)F)c1C(=O)N[C@@H]1C[C@@H]1F [Cpd 218] with LPS-induced TNFα in monocytes - EC50? 0.1 to 100 nM

Lookup: EC50 / LPS-induced TNFα in monocytes / COc1cc(-c2cnc3cc(C(C)(C)O)ccn23)cc(OC(F)F)c1C(=O)NC1CC1 [Cpd 35] 100 to 1000 nM

Request body: readout EC50, system LPS-induced TNFα in monocytes, query COc1cc(-c2cnc3cc(C(C)(C)C#N)cnn23)cc(OC(F)F)c1C(=O)N[C@@H]1C[C@@H]1F [Cpd 228] . Return the value. 100 to 1000 nM

Field: EC50 (LPS-induced TNFα in monocytes). Entry: COc1cc(-c2cnc3cc(C(C)(C)CN)ccn23)cc(OC(F)F)c1C(=O)NC1CC1 [Cpd 93] 100 to 1000 nM

----------
Biological target: SIK3 (Homo sapiens)
Construct: purchased SignalChem S12-11G-100
Experiment: ADP-Glo kinase assay, SIK3
Assay type: biochemical
Experimental: The ADP-Glo™ kinase assay is a luminescent technology assay which measures the ADP formed from a kinase reaction. […] In a second step the kinase reactions are terminated and all the remaining ATP is depleted. In a final step the ADP is converted into ATP and this newly synthesized ATP is measured by using a luciferase/luciferin reaction. The generated light is measured using an Envision plate reader, wherein the luminescent signal obtained positively correlates with the kinase activity. […]
pIC50: −log10 of the molar value.
Collected pIC50 values appear next to each entry.

1. COc1cc(-c2cnc3cc(C4(CNC(C)C)CC4)ccn23)cc(OC(F)F)c1C(=O)NC1CC1    6.30 to 7.00

What does the record list as pIC50 for COc1cn2c(-c3cc(OC)c(C(=O)NC4CC4)c(OC(F)F)c3)cnc2cc1C(C)(C)C#N ? 7.00 to 8.00
